assay_summary: Selectivity ratio of Ki for Sachcharomyces cerevisiae beta carbonic anhydrase to Ki for human carbonic anhydrase-2
Reported Ratio Ki values for a set of molecules
Lab note: jot down the number only; don't add units.

N#C/C(C(=O)Nc1ccc(S(N)(=O)=O)cc1)=C(\S)Nc1ccccc1 :: 0.14
N#C/C(=N\Nc1ccccc1)C(=O)Nc1ccc(S(N)(=O)=O)cc1 :: 1.3
N#C/C(=C\c1ccc([N+](=O)[O-])cc1)C(=O)Nc1ccc(S(N)(=O)=O)cc1 :: 0.29

Per the records, this molecule ( N#C/C(=C\c1ccc(O)c(O)c1)C(=O)Nc1ccc(S(N)(=O)=O)cc1 ) has Ratio Ki equal to 5.6

Per the records, this molecule ( CC(=O)Nc1nnc(S(N)(=O)=O)s1 [ACETAZOLAMIDE] ) has Ratio Ki equal to 0.14

Per the records, this molecule ( N#C/C(=C\C=C\c1ccccc1)C(=O)Nc1ccc(S(N)(=O)=O)cc1 ) has Ratio Ki equal to 5.3

Per the records, this molecule ( N#C/C(=C\c1ccc2c(c1)OCO2)C(=O)Nc1ccc(S(N)(=O)=O)cc1 ) has Ratio Ki equal to 1.9

---

assay_summary: Inhibition of Sachcharomyces cerevisiae beta carbonic anhydrase after 15 mins by stopped-flow CO2 hydrase assay
Design: species or system Saccharomyces cerevisiae
Reported Ki values for a set of compounds
Record the value in nM, omitting the unit from your answer.

COc1ccccc1/C=C(\C#N)C(=O)Nc1ccc(S(N)(=O)=O)cc1 :: 69.5
COc1cc(OC)c(/C=C(\C#N)C(=O)Nc2ccc(S(N)(=O)=O)cc2)c(OC)c1 :: 0.68
COc1cc(/C=C(\C#N)C(=O)Nc2ccc(S(N)(=O)=O)cc2)ccc1O :: 5.6
N#C/C(=N\Nc1ccccc1)C(=O)Nc1ccc(S(N)(=O)=O)cc1 :: 6.5
N=c1oc2ccccc2cc1C(=O)Nc1ccc(S(N)(=O)=O)cc1 :: 5.8

Per the records, this compound ( N#C/C(C(=O)Nc1ccc(S(N)(=O)=O)cc1)=C(\S)Nc1ccccc1 ) has Ki equal to 45.8

Per the records, this compound ( N#C/C(=C\C=C\c1ccccc1)C(=O)Nc1ccc(S(N)(=O)=O)cc1 ) has Ki equal to 5.9

Per the records, this compound ( CC(=O)Nc1nnc(S(N)(=O)=O)s1 [ACETAZOLAMIDE] ) has Ki equal to 82.6

Per the records, this compound ( N#C/C(=C\c1ccco1)C(=O)Nc1ccc(S(N)(=O)=O)cc1 ) has Ki equal to 7.6

Per the records, this compound ( COc1ccc(/C=C(\C#N)C(=O)Nc2ccc(S(N)(=O)=O)cc2)cc1OC ) has Ki equal to 7.2

---

Reported Ratio Ki values for a set of compounds
assay_summary: Selectivity ratio of Ki for Sachcharomyces cerevisiae beta carbonic anhydrase to Ki for human carbonic anhydrase-2
Lab note: jot down the number only; don't add units.

// known answers, use as guide
COc1cc(OC)c(/C=C(\C#N)C(=O)Nc2ccc(S(N)(=O)=O)cc2)c(OC)c1 :: 9.85
CC(=O)C1=NN(c2ccccc2)/C(=C(\C#N)C(=O)Nc2ccc(S(N)(=O)=O)cc2)S1 :: 0.13
N#C/C(=C\c1ccc(Cl)cc1Cl)C(=O)Nc1ccc(S(N)(=O)=O)cc1 :: 3.61
COc1ccccc1/C=C(\C#N)C(=O)Nc1ccc(S(N)(=O)=O)cc1 :: 0.1
COc1cc(/C=C(\C#N)C(=O)Nc2ccc(S(N)(=O)=O)cc2)ccc1O :: 1.07

Per the records, this compound ( N=c1oc2ccccc2cc1C(=O)Nc1ccc(S(N)(=O)=O)cc1 ) has Ratio Ki equal to 1.88

Per the records, this compound ( N#C/C(=C\c1ccco1)C(=O)Nc1ccc(S(N)(=O)=O)cc1 ) has Ratio Ki equal to 0.72

Per the records, this compound ( COc1ccc(/C=C(\C#N)C(=O)Nc2ccc(S(N)(=O)=O)cc2)cc1 ) has Ratio Ki equal to 9.78

Per the records, this compound ( N#C/C(=C\c1cccs1)C(=O)Nc1ccc(S(N)(=O)=O)cc1 ) has Ratio Ki equal to 0.81

Per the records, this compound ( N#C/C(=C\c1ccccc1Cl)C(=O)Nc1ccc(S(N)(=O)=O)cc1 ) has Ratio Ki equal to 7.26

---

assay_summary: Selectivity ratio of Ki for Sachcharomyces cerevisiae beta carbonic anhydrase to Ki for human carbonic anhydrase-1
Note to self: class = bucket of Ratio Ki, per I: < 5; II: ≥ 5 and < 6; III: ≥ 6

N#C/C(=N\Nc1ccccc1)C(=O)Nc1ccc(S(N)(=O)=O)cc1 :: II
N=c1oc2ccccc2cc1C(=O)Nc1ccc(S(N)(=O)=O)cc1 :: II
N#C/C(=C\c1cccs1)C(=O)Nc1ccc(S(N)(=O)=O)cc1 :: I
COc1cc(OC)c(/C=C(\C#N)C(=O)Nc2ccc(S(N)(=O)=O)cc2)c(OC)c1 :: III

**Query** Which of the defined bands does the recorded Ratio Ki of N#C/C(=C\C=C\c1ccccc1)C(=O)Nc1ccc(S(N)(=O)=O)cc1 sit within?
**Result** I

**Query** Which of the defined bands does the recorded Ratio Ki of N#C/C(=C\c1ccco1)C(=O)Nc1ccc(S(N)(=O)=O)cc1 sit within?
**Result** I

**Query** Which of the defined bands does the recorded Ratio Ki of N#C/C(=C\c1ccc(O)cc1)C(=O)Nc1ccc(S(N)(=O)=O)cc1 sit within?
**Result** III

**Query** Which of the defined bands does the recorded Ratio Ki of CN(C)c1ccc(/C=C(\C#N)C(=O)Nc2ccc(S(N)(=O)=O)cc2)cc1 sit within?
**Result** III

**Query** Which of the defined bands does the recorded Ratio Ki of COc1ccc(/C=C(\C#N)C(=O)Nc2ccc(S(N)(=O)=O)cc2)cc1 sit within?
**Result** III

**Query** Which of the defined bands does the recorded Ratio Ki of COc1ccc(/C=C(\C#N)C(=O)Nc2ccc(S(N)(=O)=O)cc2)cc1OC sit within?
**Result** I

---

assay_summary: Selectivity ratio of Ki for Sachcharomyces cerevisiae beta carbonic anhydrase to Ki for human carbonic anhydrase-1
Lab note: anything with Ratio Ki at or over 2 counts as 1.0; the rest go in 0.0.

Solved cases below.
COc1ccccc1/C=C(\C#N)C(=O)Nc1ccc(S(N)(=O)=O)cc1 :: 0.0
N#C/C(=C\c1ccc2c(c1)OCO2)C(=O)Nc1ccc(S(N)(=O)=O)cc1 :: 1.0
N#C/C(=C\c1ccc([N+](=O)[O-])cc1)C(=O)Nc1ccc(S(N)(=O)=O)cc1 :: 1.0

**Query** Given the entry N#CCC(=O)Nc1ccc(S(N)(=O)=O)cc1 , answer whether its Ratio Ki meets or surpasses 2.
**Result** 1.0

**Query** Given the entry N#C/C(C(=O)Nc1ccc(S(N)(=O)=O)cc1)=C(\S)Nc1ccccc1 , answer whether its Ratio Ki meets or surpasses 2.
**Result** 0.0

**Query** Given the entry N#C/C(=C\c1ccc(Cl)cc1Cl)C(=O)Nc1ccc(S(N)(=O)=O)cc1 , answer whether its Ratio Ki meets or surpasses 2.
**Result** 1.0

---

Tested on: Saccharomyces cerevisiae
assay_summary: Antifungal activity against wild type Saccharomyces cerevisiae BY4742 assessed as growth inhibition after 48 hrs by microplate spectrophotometric analysis
Assay type: functional
recorded_conditions: BY4742, 48 h, read-out: CC50
assay_metric: Growth inhibition IC50 (µM)
Record the value in µM, omitting the unit from your answer.

// known answers, use as guide
CN(C)c1ccc(/C=C(\C#N)C(=O)Nc2ccc(S(N)(=O)=O)cc2)cc1 :: 6.22
COc1ccc(/C=C(\C#N)C(=O)Nc2ccc(S(N)(=O)=O)cc2)cc1 :: 1.14
N#C/C(=C\c1ccc(O)c(O)c1)C(=O)Nc1ccc(S(N)(=O)=O)cc1 :: 0.89
COc1cc(OC)c(/C=C(\C#N)C(=O)Nc2ccc(S(N)(=O)=O)cc2)c(OC)c1 :: 0.73

Switching to the query record.
Per the records, this compound ( N#C/C(=C\c1ccc(O)cc1)C(=O)Nc1ccc(S(N)(=O)=O)cc1 ) has Growth inhibition IC50 equal to 6.54

---

assay_summary: Inhibition of Sachcharomyces cerevisiae beta carbonic anhydrase after 15 mins by stopped-flow CO2 hydrase assay
Parameters: species or system Saccharomyces cerevisiae
Reported Ki values for a set of compounds
Record the value in nM, omitting the unit from your answer.

// known answers, use as guide
N#C/C(=C\c1ccc(O)c(O)c1)C(=O)Nc1ccc(S(N)(=O)=O)cc1 :: 0.75
COc1cc(OC)c(OC)cc1/C=C(\C#N)C(=O)Nc1ccc(S(N)(=O)=O)cc1 :: 8.6
CN(C)c1ccc(/C=C(\C#N)C(=O)Nc2ccc(S(N)(=O)=O)cc2)cc1 :: 3
COc1cc(/C=C(\C#N)C(=O)Nc2ccc(S(N)(=O)=O)cc2)cc(OC)c1OC :: 7.1
N#C/C(=C\c1ccccc1Cl)C(=O)Nc1ccc(S(N)(=O)=O)cc1 :: 8.4

Per the records, this compound ( CC(=O)C1=NN(c2ccccc2)/C(=C(\C#N)C(=O)Nc2ccc(S(N)(=O)=O)cc2)S1 ) has Ki equal to 57.3

Per the records, this compound ( N#C/C(=C\c1ccc2c(c1)OCO2)C(=O)Nc1ccc(S(N)(=O)=O)cc1 ) has Ki equal to 7.5

Per the records, this compound ( N#C/C(=C\c1ccc(O)cc1)C(=O)Nc1ccc(S(N)(=O)=O)cc1 ) has Ki equal to 2.5

Per the records, this compound ( N#CCC(=O)Nc1ccc(S(N)(=O)=O)cc1 ) has Ki equal to 8.7

Per the records, this compound ( N#C/C(=C\c1ccc(Cl)cc1Cl)C(=O)Nc1ccc(S(N)(=O)=O)cc1 ) has Ki equal to 9.1

Per the records, this compound ( N#C/C(=C\c1ccc([N+](=O)[O-])cc1)C(=O)Nc1ccc(S(N)(=O)=O)cc1 ) has Ki equal to 18.6

Per the records, this compound ( COc1ccc(/C=C(\C#N)C(=O)Nc2ccc(S(N)(=O)=O)cc2)cc1 ) has Ki equal to 0.92

Per the records, this compound ( N#C/C(=C\c1cccs1)C(=O)Nc1ccc(S(N)(=O)=O)cc1 ) has Ki equal to 3.3
